biological target: human-mouse chimeric molecule DR-IE (human; mouse); experiment: cell-based or functional assay
Assay metric: Maximum inhibition(%) of IL-2 secretion
Answer format reminder: number followed by unit.

[
  {
    "Binder": "MS-GPC-8-6 (Fab form) (Fab, V domains shown, Fab: VH-CH1-FLAG-STREP tag II) VH: QVQLKESGPALVKPTQTLTLTCTFSGFSLSTSGVGVGWIRQPPGKALEWLALIDWDDDKYYSTSLKTRLTISKDTSKNQVVLTMTNMDPVDTATYYCARSPRYRGAFDYWGQGTLVTVSS VL: DIVLTQPPSVSGAPGQRVTISCSGSSSNIGSNYVSWYQQLPGTAPKLLIYDNNQRPSGVPDRFSGSKSGTSASLAITGLQSEDEADYYCQSYDYDHYVFGGGTKLTVLG",
    "Maximum inhibition(%) of IL-2 secretion": "100%"
  }
]

Turning to the following binder.
Requested read-out: Maximum inhibition(%) of IL-2 secretion. Entry: MS-GPC-8-27-7 (Fab form) (Fab, V domains shown, Fab: VH-CH1-FLAG-STREP tag II) VH: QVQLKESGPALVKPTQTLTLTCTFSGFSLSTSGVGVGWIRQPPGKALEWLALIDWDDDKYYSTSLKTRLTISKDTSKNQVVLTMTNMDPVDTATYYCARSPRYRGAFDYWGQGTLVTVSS VL: DIVLTQPPSVSGAPGQRVTISCSGSESNIGNNYVGWYQQLPGTAPKLLIYDNNQRPSGVPDRFSGSKSGTSASLAITGLQSEDEADYYCQSYDMNVHVFGGGTKLTVLG 100%
